MIC, E. Coli S 18, per-entry values.
# output: bare number, implied unit µg/mL

Consider the reported MIC for these compounds:
| Smiles Code | MIC [µg/mL] |
| --- | --- |
| O=C(NOC[C@@H]1C[C@@H](CO)CN1)[C@@H]1CC[C@@H]2CN1C(=O)N2OS(=O)(=O)O | 1 |
| C[C@H]1CN[C@H](CONC(=O)[C@@H]2CC[C@@H]3CN2C(=O)N3OS(=O)(=O)O)C1 | 1 |
| O=C(NOC[C@@H]1C[C@@H](CF)CN1)[C@@H]1CC[C@@H]2CN1C(=O)N2OS(=O)(=O)O | 1 |

Kindly review the next compound as well.
In one line, give reported MIC of the entry NC[C@H]1CN[C@H](CONC(=O)[C@@H]2CC[C@@H]3CN2C(=O)N3OS(=O)(=O)O)C1 .
2

----------
Tested on: K. pneumoniae H 522
This section presents compounds with their documented MIC values.
Respond with the bare value in µg/mL.

Consider the following illustrative entries.
| Smiles Code | Target System | MIC / µg/mL |
| --- | --- | --- |
| C[C@H]1CN[C@@H](CONC(=O)[C@@H]2CC[C@@H]3CN2C(=O)N3OS(=O)(=O)O)C1 | K. pneumoniae H 522 | 2 |
| O=C(NOC[C@H]1C[C@H](CO)CN1)[C@@H]1CC[C@@H]2CN1C(=O)N2OS(=O)(=O)O | K. pneumoniae H 522 | 2 |
| NC[C@H]1CN[C@H](CONC(=O)[C@@H]2CC[C@@H]3CN2C(=O)N3OS(=O)(=O)O)C1 | K. pneumoniae H 522 | 4 |

Give K. pneumoniae H 522 MIC for the following compound: O=C(NOC[C@@H]1C[C@@H](CF)CN1)[C@@H]1CC[C@@H]2CN1C(=O)N2OS(=O)(=O)O
2

----------
Tested on: E. Coli M 49
Measured Parameter: MIC
Remember to put the unit after the number in your answer.

| Smiles Code | MIC |
| --- | --- |
| O=C(NOC[C@@H]1C[C@@H](CO)CN1)[C@@H]1CC[C@@H]2CN1C(=O)N2OS(=O)(=O)O | 4 mg/L |
| O=C(NOC[C@@H]1C[C@@H](CF)CN1)[C@@H]1CC[C@@H]2CN1C(=O)N2OS(=O)(=O)O | 4 mg/L |

Would you kindly look at the next entry?
Give reported MIC for C[C@@H]1CN[C@H](CONC(=O)[C@@H]2CC[C@@H]3CN2C(=O)N3OS(=O)(=O)O)C1 (E. Coli M 49)
4 mg/L

----------
Each entry below carries its measured MIC, system: E. Coli M 36.
Kindly answer with a numeric value in µg/mL, unit omitted.

| Smiles Code | Target System | Numeric Value |
| --- | --- | --- |
| C[C@@H]1CN[C@H](CONC(=O)[C@@H]2CC[C@@H]3CN2C(=O)N3OS(=O)(=O)O)C1 | E. Coli M 36 | 0.5 |
| O=C(NOC[C@@H]1C[C@@H](CO)CN1)[C@@H]1CC[C@@H]2CN1C(=O)N2OS(=O)(=O)O | E. Coli M 36 | 1 |

Give reported MIC for O=C(NOC[C@@H]1C[C@@H](CF)CN1)[C@@H]1CC[C@@H]2CN1C(=O)N2OS(=O)(=O)O (E. Coli M 36)
1

Using E. Coli M 36 as the test system, report measured MIC of O=C(NOC[C@H]1C[C@@H](CO)CN1)[C@@H]1CC[C@@H]2CN1C(=O)N2OS(=O)(=O)O .
1

For E. Coli M 36, give MIC of the listed compound: C[C@H]1CN[C@H](CONC(=O)[C@@H]2CC[C@@H]3CN2C(=O)N3OS(=O)(=O)O)C1
0.5

Give MIC for C[C@@H]1CN[C@@H](CONC(=O)[C@@H]2CC[C@@H]3CN2C(=O)N3OS(=O)(=O)O)C1 tested on E. Coli M 36.
0.5

Please tell me the measured MIC for O=C(NOC[C@H]1C[C@H](CO)CN1)[C@@H]1CC[C@@H]2CN1C(=O)N2OS(=O)(=O)O ; system: E. Coli M 36.
1

// fetch MIC for C[C@H]1CN[C@@H](CONC(=O)[C@@H]2CC[C@@H]3CN2C(=O)N3OS(=O)(=O)O)C1 ; system: E. Coli M 36
0.5

Please look at O=C(NOC[C@@H]1C[C@H](CO)CN1)[C@@H]1CC[C@@H]2CN1C(=O)N2OS(=O)(=O)O and tell me its recorded MIC on E. Coli M 36.
1

Name the value of MIC reported for NC[C@H]1CN[C@H](CONC(=O)[C@@H]2CC[C@@H]3CN2C(=O)N3OS(=O)(=O)O)C1 when tested on E. Coli M 36.
2

----------
Test system E. Coli S 18, MIC listed for each of the molecules.
Report only the number, with the unit µg/mL understood.

Some molecules with known MIC results, for comparison:
| Smiles Code | Target System | Numeric Value |
| --- | --- | --- |
| O=C(NOC[C@H]1C[C@H](CO)CN1)[C@@H]1CC[C@@H]2CN1C(=O)N2OS(=O)(=O)O | E. Coli S 18 | 1 |
| C[C@H]1CN[C@@H](CONC(=O)[C@@H]2CC[C@@H]3CN2C(=O)N3OS(=O)(=O)O)C1 | E. Coli S 18 | 1 |
| C[C@@H]1CN[C@H](CONC(=O)[C@@H]2CC[C@@H]3CN2C(=O)N3OS(=O)(=O)O)C1 | E. Coli S 18 | 1 |
| O=C(NOC[C@H]1C[C@@H](CO)CN1)[C@@H]1CC[C@@H]2CN1C(=O)N2OS(=O)(=O)O | E. Coli S 18 | 2 |
| C[C@@H]1CN[C@@H](CONC(=O)[C@@H]2CC[C@@H]3CN2C(=O)N3OS(=O)(=O)O)C1 | E. Coli S 18 | 1 |

Okay, now this molecule:
Complete the entry with MIC for O=C(NOC[C@@H]1C[C@H](CO)CN1)[C@@H]1CC[C@@H]2CN1C(=O)N2OS(=O)(=O)O
1

----------
System: K. pneumoniae H 522
Measured Parameter: MIC (mg/L)
Output spec: scalar in mg/L, unitless text.

Some compounds with recorded MIC:
| Smiles Code | Target System | Numeric Value |
| --- | --- | --- |
| C[C@@H]1CN[C@@H](CONC(=O)[C@@H]2CC[C@@H]3CN2C(=O)N3OS(=O)(=O)O)C1 | K. pneumoniae H 522 | 1 |
| C[C@H]1CN[C@H](CONC(=O)[C@@H]2CC[C@@H]3CN2C(=O)N3OS(=O)(=O)O)C1 | K. pneumoniae H 522 | 1 |
| O=C(NOC[C@H]1C[C@@H](CO)CN1)[C@@H]1CC[C@@H]2CN1C(=O)N2OS(=O)(=O)O | K. pneumoniae H 522 | 8 |

Dear colleague, please send me the reported MIC for C[C@@H]1CN[C@H](CONC(=O)[C@@H]2CC[C@@H]3CN2C(=O)N3OS(=O)(=O)O)C1 when you can.
1

Assign MIC to the following record: O=C(NOC[C@@H]1C[C@H](CO)CN1)[C@@H]1CC[C@@H]2CN1C(=O)N2OS(=O)(=O)O
2

Return the recorded MIC value; entry: O=C(NOC[C@@H]1C[C@@H](CO)CN1)[C@@H]1CC[C@@H]2CN1C(=O)N2OS(=O)(=O)O
1
